Cited source: patent US9301923B2

test system: Factor VII; assay: Factor VII activity assay, in vivo liver delivery of FVII siRNA LNP; parameters: species or system mouse; details: dose 3 mg/kg siRNA i.v., ~48 h; lipid/no neutral lipid/CHOL/AVANTI 880150P 50/0/46/4, N/P 3.43
Use 40% as the dividing line for FVII inhib %, with the line itself on the condition met side and lower values as condition not met.

Reference set, count: 4
// query Textbook exercise: given the entry CCCCC/C=C\C/C=C\CCCCCCCCOCC(CN1CC=CCC1)OCCOCCO[C@H]1CC[C@@]2(C)C(=CCC3C2CC[C@@]2(C)C3CC[C@@H]2[C@H](C)CCCC(C)C)C1 (stereo partly shown) , state whether its FVII inhib % is greater than or equal to 40%.
// result condition met

// query Textbook exercise: given the entry CCCCC/C=C\C/C=C\CCCCCCCCOCC(CN1CCC[C@@H]1COC)OCCOCCO[C@H]1CC[C@@]2(C)C(=CC[C@H]3C4CC[C@H]([C@H](C)CCCC(C)C)[C@@]4(C)CC[C@@H]32)C1 (stereo partly shown) , state whether its FVII inhib % is greater than or equal to 40%.
// result condition met

// query Textbook exercise: given the entry CCCCC/C=C\C/C=C\CCCCCCCCOCC(CN1CCCC1)OCCOCCO[C@H]1CC[C@@]2(C)C(=CC[C@H]3[C@@H]4CC[C@H]([C@H](C)CCCC(C)C)[C@@]4(C)CC[C@@H]32)C1 (stereo partly shown) , state whether its FVII inhib % is greater than or equal to 40%.
// result condition met

// query Textbook exercise: given the entry CCCCC/C=C\C/C=C\CCCCCCCCOCC(CN1CCOCC1)OCCCCO[C@H]1CC[C@@]2(C)C(=CCC3C2CC[C@@]2(C)C3CC[C@@H]2[C@H](C)CCCC(C)C)C1 (stereo partly shown) , state whether its FVII inhib % is greater than or equal to 40%.
// result condition not met

New cases:
// query Textbook exercise: given the entry CCCCC/C=C\C/C=C\CCCCCCCCOCC(CN1CCCC1c1ccccc1)OCCOCCO[C@H]1CC[C@@]2(C)C(=CC[C@H]3[C@@H]4CC[C@H]([C@H](C)CCCC(C)C)[C@@]4(C)CC[C@@H]32)C1 (stereo partly shown) , state whether its FVII inhib % is greater than or equal to 40%.
// result condition not met

// query Textbook exercise: given the entry CCCCC/C=C\C/C=C\CCCCCCCCOCC(CN1C(C)CCC1C)OCCOCCO[C@H]1CC[C@@]2(C)C(=CCC3C2CC[C@@]2(C)C3CC[C@@H]2[C@H](C)CCCC(C)C)C1 (stereo partly shown) , state whether its FVII inhib % is greater than or equal to 40%.
// result condition not met

// query Textbook exercise: given the entry CCCCC/C=C\C/C=C\CCCCCCCCOCC(CN1CC[C@@H]2CCCC[C@@H]2C1)OCCOCCO[C@H]1CC[C@@]2(C)C(=CCC3C2CC[C@@]2(C)C3CC[C@@H]2[C@H](C)CCCC(C)C)C1 (stereo partly shown) , state whether its FVII inhib % is greater than or equal to 40%.
// result condition met

// query Textbook exercise: given the entry CCCCC/C=C\C/C=C\CCCCCCCCOCC(CN1CCC(N(C)C)C1)OCCOCCO[C@H]1CC[C@@]2(C)C(=CC[C@H]3[C@@H]4CC[C@H]([C@H](C)CCCC(C)C)[C@@]4(C)CC[C@@H]32)C1 (stereo partly shown) , state whether its FVII inhib % is greater than or equal to 40%.
// result condition not met

// query Textbook exercise: given the entry CCCCC/C=C\C/C=C\CCCCCCCCOCC(CN1CCC(OC)C1)OCCOCCO[C@H]1CC[C@@]2(C)C(=CC[C@H]3[C@@H]4CC[C@H]([C@H](C)CCCC(C)C)[C@@]4(C)CC[C@@H]32)C1 (stereo partly shown) , state whether its FVII inhib % is greater than or equal to 40%.
// result condition met

// query Textbook exercise: given the entry CCCCC/C=C\C/C=C\CCCCCCCCOCC(CN1CCC(C)(C)CC1)OCCOCCO[C@H]1CC[C@@]2(C)C(=CCC3C2CC[C@@]2(C)C3CC[C@@H]2[C@H](C)CCCC(C)C)C1 (stereo partly shown) , state whether its FVII inhib % is greater than or equal to 40%.
// result condition met

// query Textbook exercise: given the entry CCCCC/C=C\C/C=C\CCCCCCCCCCC(CN(C)C)OC(=O)CCC(=O)O[C@H]1CC[C@@]2(C)C(=CCC3C2CC[C@@]2(C)C3CC[C@@H]2[C@H](C)CCCC(C)C)C1 (stereo partly shown) [E0174, reference compound] , state whether its FVII inhib % is greater than or equal to 40%.
// result condition not met

// query Textbook exercise: given the entry CCCCC/C=C\C/C=C\CCCCCCCCOCC(CN1CCSCC1)OCCOCCO[C@H]1CC[C@@]2(C)C(=CCC3C2CC[C@@]2(C)C3CC[C@@H]2[C@H](C)CCCC(C)C)C1 (stereo partly shown) , state whether its FVII inhib % is greater than or equal to 40%.
// result condition not met

// query Textbook exercise: given the entry CCCCC/C=C\C/C=C\CCCCCCCCOCC(CN1C[C@@H](C)O[C@@H](C)C1)OCCOCCO[C@H]1CC[C@@]2(C)C(=CC[C@H]3[C@@H]4CC[C@H]([C@H](C)CCCC(C)C)[C@@]4(C)CC[C@@H]32)C1 (stereo partly shown) , state whether its FVII inhib % is greater than or equal to 40%.
// result condition not met
